assay: in vitro; details: male, Sprague-Dawley, rat, pooled cryopreserved rat hepatocytes, pH 7.4
Some molecules, each annotated with its measured half-life at 1 µM.

Examples from the recorded data:
{"columns": ["MOLECULE", "half-life at 1 µM"],
 "data": [
  ["COc1cnc(N2CCN(C)[C@@H](C)C2)nc1N1CC(C(=O)NC(C)(C)c2cnc3ccccn23)C1 [Example 85]", "> 3 h"],
  ["CN1CCN(c2cc(N3CC(C(=O)NC(C)(C)c4cnc5ccccn45)C3)c(F)cn2)CC1 [Example 4]", "> 3 h"]
]}

Shift focus to the following entry.
Recorded half-life at 1 µM (molecule CN1CCN(c2ncc(Cl)c(N3CC(C(=O)N(C)C(C)(C)c4cnc5ccccn45)C3)n2)CC1 [Example 73] ): > 3 h
